The origin of these recorded values is patent US20190218214A1.

procedure text: Plasma:Brain level study (PO and IV)
Format: in vivo
test conditions: brain/plasma; 10 mg/kg; 5 h, PO; read-out: B:P
Documented Kp at 5 h across a set of compounds

molecule	Kp at 5 h
Cc1cc(-c2cnc3cc(-c4ccc(N5CCNCC5)cc4)ccn23)c2ccccc2n1	0.56
Cc1cc(-c2cnc3cc(-c4ccc(N5CCNCC5)cc4)ccn23)c2cc(F)cc(F)c2n1	0.59
Cc1cc(-c2cnc3cc(-c4ccc(N5CCNCC5)cc4)ccn23)c2cc(F)ccc2n1	4.68

* * *

procedure text: in vitro
test conditions: rat, microsomes
Documented microsomal CLint across a set of compounds
readout type: microsomal CLint

molecule	result
Cc1cc(-c2cnc3cc(-c4ccc(N5CCNCC5)cc4)ccn23)c2ccccc2n1	66 µL/min/mg
Cc1cc(-c2cnc3cc(-c4ccc(N5CCNCC5)cc4)ccn23)c2cc(F)cc(F)c2n1	47 µL/min/mg
Cc1cc(-c2cnc3cc(-c4ccc(N5CCNCC5)cc4)ccn23)c2cc(F)ccc2n1	61 µL/min/mg
